# ELISA score per entry
# Study Target: T1, human neonatal Fc receptor (hFcRn) (human, UniProt P55899 24-290; P61769 21-119)
# T1 construct: Biotinylated in the ELISA, Octet and yeast assays; also called human FcRn; huFcRn
# T1 sequence (P55899 24-290 limits assumed, chain 1 of 2): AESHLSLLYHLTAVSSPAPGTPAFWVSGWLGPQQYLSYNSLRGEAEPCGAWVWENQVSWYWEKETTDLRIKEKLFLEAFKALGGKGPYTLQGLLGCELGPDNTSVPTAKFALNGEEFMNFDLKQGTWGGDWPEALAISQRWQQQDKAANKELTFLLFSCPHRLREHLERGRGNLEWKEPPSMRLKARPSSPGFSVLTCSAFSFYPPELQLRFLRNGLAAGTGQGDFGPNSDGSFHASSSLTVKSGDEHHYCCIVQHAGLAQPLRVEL
# T1 sequence (P61769 21-119 limits assumed, chain 2 of 2): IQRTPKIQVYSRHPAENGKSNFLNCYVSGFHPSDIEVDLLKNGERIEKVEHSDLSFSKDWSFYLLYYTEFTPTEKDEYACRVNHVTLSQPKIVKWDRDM
# Assay Details: phage ELISA pH 6;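 note: higher score means stronger binding and above about 3 to 5 exceeds background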
Simply state the number, no unit and no words.

Check out these entries, answers already filled in.
- Binder: "L5 isolate with insertion SEQ ID NO: 477 (other) EPKSCDKTHTCPPCPAPELLGGPSVFLFPPKPKDTLMISRTPEVTCVVVDVSHEDPEVKFNWYVDGVEVHNAKTKPREEQYNSTYRVVSVLTVLHQDWLNGKEYKCKVSNKALPAPIEKTISKAKGQPREPQVYTLPPSRDELTKNQVSLTCLVKGFYPSDIAVEWESNGGCQQIKEWCGGGQPENNYKTTPPVLDSDGSFFLYSKLTVDKSRWQQGNVFSCSVMHEALHNHYTQKSLSLSPGK"
  Value Reported: 38.7
- Binder: "L5 isolate with insertion SEQ ID NO: 482 (other) EPKSCDKTHTCPPCPAPELLGGPSVFLFPPKPKDTLMISRTPEVTCVVVDVSHEDPEVKFNWYVDGVEVHNAKTKPREEQYNSTYRVVSVLTVLHQDWLNGKEYKCKVSNKALPAPIEKTISKAKGQPREPQVYTLPPSRDELTKNQVSLTCLVKGFYPSDIAVEWESNGGCMGWWHLCGGGQPENNYKTTPPVLDSDGSFFLYSKLTVDKSRWQQGNVFSCSVMHEALHNHYTQKSLSLSPGK"
  Value Reported: 29.5
- Binder: "L5 isolate with insertion SEQ ID NO: 451 (other) EPKSCDKTHTCPPCPAPELLGGPSVFLFPPKPKDTLMISRTPEVTCVVVDVSHEDPEVKFNWYVDGVEVHNAKTKPREEQYNSTYRVVSVLTVLHQDWLNGKEYKCKVSNKALPAPIEKTISKAKGQPREPQVYTLPPSRDELTKNQVSLTCLVKGFYPSDIAVEWESNGGCNLGHMPCGGGQPENNYKTTPPVLDSDGSFFLYSKLTVDKSRWQQGNVFSCSVMHEALHNHYTQKSLSLSPGK"
  Value Reported: 51.1
- Binder: "L6B isolate with insertion SEQ ID NO: 473 (other) EPKSCDKTHTCPPCPAPELLGGPSVFLFPPKPKDTLMISRTPEVTCVVVDVSHEDPEVKFNWYVDGVEVHNAKTKPREEQYNSTYRVVSVLTVLHQDWLNGKEYKCKVSNKALPAPIEKTISKAKGQPREPQVYTLPPSRDELGGCSFSRHMGACGGTKNQVSLTCLVKGFYPSDIAVEWESNGQPENNYKTTPPVLDSDGSFFLYSKLTVDKSRWQQGNVFSCSVMHEALHNHYTQKSLSLSPGK"
  Value Reported: 41.8

Consider now this further binder.
**Query** Field request: ELISA score | item: L5 isolate with insertion SEQ ID NO: 428 (other) EPKSCDKTHTCPPCPAPELLGGPSVFLFPPKPKDTLMISRTPEVTCVVVDVSHEDPEVKFNWYVDGVEVHNAKTKPREEQYNSTYRVVSVLTVLHQDWLNGKEYKCKVSNKALPAPIEKTISKAKGQPREPQVYTLPPSRDELTKNQVSLTCLVKGFYPSDIAVEWESNGGCEMENAWCGGGQPENNYKTTPPVLDSDGSFFLYSKLTVDKSRWQQGNVFSCSVMHEALHNHYTQKSLSLSPGK
**Result** 58.5
